- targetDesc: human β2-AR (Homo sapiens, UniProt P07550)
- Sequence (P07550 whole entry): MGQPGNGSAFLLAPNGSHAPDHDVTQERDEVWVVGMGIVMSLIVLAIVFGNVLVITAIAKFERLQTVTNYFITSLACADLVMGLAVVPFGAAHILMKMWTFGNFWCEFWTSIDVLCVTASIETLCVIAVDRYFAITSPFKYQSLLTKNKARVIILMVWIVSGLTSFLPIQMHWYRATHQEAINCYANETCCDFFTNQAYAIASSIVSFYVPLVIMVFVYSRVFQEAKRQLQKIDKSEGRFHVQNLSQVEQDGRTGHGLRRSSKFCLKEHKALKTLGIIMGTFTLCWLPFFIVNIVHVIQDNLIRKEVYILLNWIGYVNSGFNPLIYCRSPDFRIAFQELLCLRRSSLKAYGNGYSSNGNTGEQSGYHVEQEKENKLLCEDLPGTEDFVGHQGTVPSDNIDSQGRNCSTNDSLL
- method: Calcium response (Fluo-4) in Flp-In-293 cells stably transfected with ADRB2 and GNA15
- Format: cell-based
- measurementSetup: 5 nM epinephrine; read-out: IC50 of the calcium response elicited by 5 nM epinephrine
measuredQuantity: IC50 (nM)
Express the result in nM but write the number alone.

Considering CC(C)(C)NC[C@@H](O)COc1cccc2[nH]cc(CC(N)=O)c12 , its IC50 with human β2-AR (Homo sapiens, UniProt P07550) was recorded as 46

###

- targetDesc: human β2-AR (Homo sapiens)
- method: Calcium response (Fluo-4) in Flp-In-293 cells stably transfected with ADRB2 and GNA15
- Assay type: cell-based
- measurementSetup: concentration response curve, 1st experiment; read-out: IC50 (nM) 1st experiment
Here the recorded IC50 is given for each entry.
Express the result in nM but write the number alone.

Sample records with IC50:
>>> reported("CC(C)NC[C@@H](O)COc1cccc2[nH]cc(CC(=O)N(C)C)c12 [CD3-T3]")
66
>>> reported("CC(C)(C)NC[C@@H](O)COc1cccc2[nH]cc(CC(N)=O)c12 [CD3-403]")
221

Continue with the next molecule.
# IC50 (molecule: Cc1c[nH]c2cccc(OC[C@H](O)CNC(C)(C)C)c12 [CD3-T1] ) is 6
